Reported pKi values follow for various compounds
- MEASURED ON: human emopamil binding protein and human 7-dehydrocholesterol reductase co-expressing cells (hEBP-DHCR7 membrane) (Homo sapiens (Human), UniProt Q15125)
- Sequence (Q15125 whole entry): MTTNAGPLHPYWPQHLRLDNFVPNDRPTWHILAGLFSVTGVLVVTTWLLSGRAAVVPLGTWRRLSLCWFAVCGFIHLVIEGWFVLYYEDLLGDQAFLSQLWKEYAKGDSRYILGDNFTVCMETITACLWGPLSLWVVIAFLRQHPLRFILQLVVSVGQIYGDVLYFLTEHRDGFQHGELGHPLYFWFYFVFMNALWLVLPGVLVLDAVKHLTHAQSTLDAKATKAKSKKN
pKi: −log10 of the molar value.
RECORDED METRIC: pKi

>>> df
                                   compound  experimental_result
0  CC(C)n1nc(-c2ccc(C(F)(F)F)nc2)nc1[C@H]1CC[C@@H](N2CCC3(C2)CS(=O)(=O)C3)C1 (single isomer, unassigned) [17D*]                 7.19
1  O=S1(=O)CC2(CCN([C@@H]3CCC[C@H](c4ccc(C(F)(F)F)nc4)C3)C2)C1 (single isomer, unassigned) [54A*]                 7.68
2  CC(C)n1nc(-c2cncc(C(F)(F)F)c2)cc1[C@@H]1CC[C@H](N2CCC3(C2)CS(=O)(=O)C3)C1 (single isomer, unassigned) [13B*]                 7.82
